Conditions: buffer; pH 7.4; 200.0 µM
measured_property: solubility kinetic

Previously resolved entries follow.
[
  {
    "molecule": "O=[N+]([O-])c1cccc2c3c([nH]c12)CCCC3",
    "measured_value": "< 0.2 µg/mL"
  },
  {
    "molecule": "Cc1ccc(NC(=O)CCCc2nc3ccccc3s2)c(O)c1",
    "measured_value": "> 49 µg/mL"
  },
  {
    "molecule": "CC(C)(Cc1ccc(O)cc1)NC(=O)SCc1ccccc1",
    "measured_value": "> 47.3 µg/mL"
  }
]

# next molecule below
In: Requested field: solubility kinetic. Item: CCOC(=O)Cn1c(C)c(Br)c(COC)c(C#N)c1=O
Out: > 51.5 µg/mL
